Values from paper PMC8119466

% Phosphatase Activity (compared to DMSO) PRL-1 for assorted compounds
- tested target: recombinant PRL-1 (Homo sapiens, UniProt Q93096)
- Construct: 6xHis (N, cleaved yes); made in house; host or cells: E. coli One Shot BL21 Star
- Sequence (Q93096 whole entry): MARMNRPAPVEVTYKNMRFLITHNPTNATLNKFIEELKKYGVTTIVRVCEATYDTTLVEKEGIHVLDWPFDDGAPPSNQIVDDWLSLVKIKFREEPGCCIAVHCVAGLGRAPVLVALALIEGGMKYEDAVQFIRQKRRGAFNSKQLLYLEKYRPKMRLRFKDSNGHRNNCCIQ
- experimental details: In vitro phosphatase assay (DiFMUP hydrolysis), PRL-1; further: test concentration or dose not given here
- Type: biochemical
- conditions: FDA-approved drug screen; compared to DMSO
// unit must come after the numeric part

Worked examples, 6 compounds total:
- CC(C)CN(C[C@@H](O)[C@H](Cc1ccccc1)NC(=O)O[C@H]1CCOC1)S(=O)(=O)c1ccc(N)cc1: 96%
- CCN(CC)C(=O)c1cccc(C)c1: 95%
- CCOC(=O)[C@H](CCc1ccccc1)N[C@H]1CCCN2CCC[C@@H](C(=O)O)N2C1=O [Cilazapril Monohydrate]: 91%
- CC(=O)O[C@]1(C(C)=O)CC[C@H]2[C@@H]3C[C@H](C)C4=CC(=O)CC[C@]4(C)[C@H]3CC[C@@]21C [Medroxyprogesterone acetate]: 89%
- O=C(O)/C=C/c1ccc(Cn2ccnc2)cc1: 96%
- C[C@@H]1O[C@@H]1P(=O)(O)O.NC(CO)(CO)CO: 100%

Look up % Phosphatase Activity (compared to DMSO) PRL-1 for this compound: Cn1cnc2c(F)c(Nc3ccc(Br)cc3F)c(C(=O)NOCCO)cc21 85%

Here is the next compound: COc1ccc(/C=C\c2cc(OC)c(OC)c(OC)c2)cc1OP(=O)([O-])[O-].[Na+].[Na+] 88%

Please do the same for C[N+](C)(C)CC(O)CC(=O)O.[Cl-] (racemic) [DL-Carnitine HCl] as well. 100%

----------
- tested target: recombinant PRL-2 (Homo sapiens, UniProt Q12974)
- Construct: 6xHis (N, cleaved yes); made in house; host or cells: E. coli One Shot BL21 Star
- Sequence (Q12974 whole entry): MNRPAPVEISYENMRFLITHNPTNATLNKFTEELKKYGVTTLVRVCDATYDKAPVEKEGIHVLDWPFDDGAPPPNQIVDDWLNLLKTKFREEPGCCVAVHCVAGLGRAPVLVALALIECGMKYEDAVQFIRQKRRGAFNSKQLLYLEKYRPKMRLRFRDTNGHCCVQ
- experimental details: In vitro phosphatase assay (DiFMUP hydrolysis), PRL-2;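 further: PRL-2 activity read as DiFMUP hydrolysis after 20 min at room temperature with drug, enzyme first pre-reduced at 4 °C for 20 min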
- Format: biochemical
- conditions: FDA-approved drug screen; compared to DMSO
Where a name gives a salt, the structure may show the parent alone.
We begin with a simple list: items and their reported % Phosphatase Activity (compared to DMSO) PRL-2.
Write the value in % as a bare number.

- C[C@]12CCC3=C4CCC(=O)C=C4CC[C@H]3[C@@H]1CC[C@@]2(O)CC#N [Dienogest]: 78
- CCCCOC(=O)c1ccc(O)cc1 [Butylparaben]: 94
- CCCOc1ccc(C(=O)OCCN(CC)CC)cc1N [Proparacaine HCl]: 108
- Cc1cccc(CN2CCN(C(c3ccccc3)c3ccc(Cl)cc3)CC2)c1.Cl.Cl (centres unmarked) [Meclizine 2HCl]: 112
- CN1C[C@@H]2C[C@H]1CN2c1cc2c(cc1F)c(=O)c(C(=O)O)cn2C1CC1.CS(=O)(=O)O [Danofloxacin Mesylate]: 757

Request body: readout % Phosphatase Activity (compared to DMSO) PRL-2, system recombinant PRL-2 (Homo sapiens, UniProt Q12974), query CN1CCC(OC(c2ccccc2)c2ccccc2)CC1 [Diphenylpyraline HCl] . Return the value. 100

Query O=C1c2cccc(O)c2C(=O)c2c(O)cccc21 [Danthron] next 96

What do you get for CC1(C)CCC(CN2CCN(c3ccc(C(=O)NS(=O)(=O)c4ccc(NCC5CCOCC5)c([N+](=O)[O-])c4)c(Oc4cnc5[nH]ccc5c4)c3)CC2)=C(c2ccc(Cl)cc2)C1 [ABT-199 (GDC-0199)] ? 30
